Quick reference: Decay rate, Factor VIIIa (1.5 nM factor VIIIa, factor IXa absent) of the listed items.
# measurement-target: T1, factor VIIIa A1/A3C1C2 dimer, Glu1984Ala (human, UniProt P00451 20-391; P00451 1709-2351)
# T1 sequence 1: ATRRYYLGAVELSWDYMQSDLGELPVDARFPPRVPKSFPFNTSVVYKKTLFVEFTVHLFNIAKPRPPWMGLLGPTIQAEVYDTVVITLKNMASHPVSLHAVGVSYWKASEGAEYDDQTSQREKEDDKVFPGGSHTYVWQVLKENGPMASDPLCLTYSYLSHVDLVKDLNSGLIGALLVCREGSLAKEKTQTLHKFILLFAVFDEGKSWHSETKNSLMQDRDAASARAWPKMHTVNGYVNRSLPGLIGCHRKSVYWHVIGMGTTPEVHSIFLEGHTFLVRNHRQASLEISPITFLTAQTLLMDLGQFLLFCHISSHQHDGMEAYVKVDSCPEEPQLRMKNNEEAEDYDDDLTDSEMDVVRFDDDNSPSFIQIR
# T1 sequence 2: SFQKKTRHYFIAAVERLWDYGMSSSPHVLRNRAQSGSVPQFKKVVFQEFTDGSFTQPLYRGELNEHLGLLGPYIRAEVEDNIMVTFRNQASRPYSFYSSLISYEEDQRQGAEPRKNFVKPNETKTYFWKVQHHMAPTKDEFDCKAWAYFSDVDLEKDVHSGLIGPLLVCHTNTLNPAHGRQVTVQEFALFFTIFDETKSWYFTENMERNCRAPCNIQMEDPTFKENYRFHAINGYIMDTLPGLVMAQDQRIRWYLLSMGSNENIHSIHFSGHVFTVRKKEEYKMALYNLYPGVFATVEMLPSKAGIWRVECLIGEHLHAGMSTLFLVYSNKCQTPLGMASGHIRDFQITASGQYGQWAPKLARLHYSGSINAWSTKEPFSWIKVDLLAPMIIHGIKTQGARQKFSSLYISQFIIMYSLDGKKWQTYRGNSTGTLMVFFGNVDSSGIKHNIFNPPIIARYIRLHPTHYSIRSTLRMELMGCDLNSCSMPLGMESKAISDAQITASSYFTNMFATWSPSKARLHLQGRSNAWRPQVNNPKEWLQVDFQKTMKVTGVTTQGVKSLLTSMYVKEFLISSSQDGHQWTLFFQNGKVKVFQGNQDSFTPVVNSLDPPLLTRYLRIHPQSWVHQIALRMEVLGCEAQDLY
# protocol-details: cell-based or functional assay
Lab book: enter the figure in min⁻¹, no units written.

Worked examples, 2 binders total:
binder: factor VIIIa A2 subunit, wild type (other) SVAKKHPKTWVHYIAAEEEDWDYAPLVLAPDDRSYKSQYLNNGPQRIGRKYKKVRFMAYTDETFKTREAIQHESGILGPLLYGEVGDTLLIIFKNQASRPYNIYPHGITDVRPLYSRRLPKGVKHLKDFPILPGEIFKYKWTVTVEDGPTKSDPRCLTRYYSSFVNMERDLASGLIGPLLICYKESVDQRGNQIMSDKRNVILFSVFDENRSWYLTENIQRFLPNPAGVQLEDPEFQASNIMHSINGYVFDSLQLSVCLHEVAYWYILSIGAQTDFLSVFFSGYTFKHKMVYEDTLTLFPFSGETVFMSMENPGLWILGCHNSDFRNRGMTALLKVSSCDKNTGDYYEDSYEDISAYLLSKNNAIEPR
recorded-number: 0.0574
--
binder: factor VIIIa A2 subunit, Glu665Ala (other) SVAKKHPKTWVHYIAAEEEDWDYAPLVLAPDDRSYKSQYLNNGPQRIGRKYKKVRFMAYTDETFKTREAIQHESGILGPLLYGEVGDTLLIIFKNQASRPYNIYPHGITDVRPLYSRRLPKGVKHLKDFPILPGEIFKYKWTVTVEDGPTKSDPRCLTRYYSSFVNMERDLASGLIGPLLICYKESVDQRGNQIMSDKRNVILFSVFDENRSWYLTENIQRFLPNPAGVQLEDPEFQASNIMHSINGYVFDSLQLSVCLHEVAYWYILSIGAQTDFLSVFFSGYTFKHKMVYADTLTLFPFSGETVFMSMENPGLWILGCHNSDFRNRGMTALLKVSSCDKNTGDYYEDSYEDISAYLLSKNNAIEPR
recorded-number: 0.13

Now let's try a different one.
Tell us which Decay rate, Factor VIIIa (1.5 nM factor VIIIa, factor IXa absent) value is on record for factor VIIIa A2 subunit, Glu665Val (other) SVAKKHPKTWVHYIAAEEEDWDYAPLVLAPDDRSYKSQYLNNGPQRIGRKYKKVRFMAYTDETFKTREAIQHESGILGPLLYGEVGDTLLIIFKNQASRPYNIYPHGITDVRPLYSRRLPKGVKHLKDFPILPGEIFKYKWTVTVEDGPTKSDPRCLTRYYSSFVNMERDLASGLIGPLLICYKESVDQRGNQIMSDKRNVILFSVFDENRSWYLTENIQRFLPNPAGVQLEDPEFQASNIMHSINGYVFDSLQLSVCLHEVAYWYILSIGAQTDFLSVFFSGYTFKHKMVYVDTLTLFPFSGETVFMSMENPGLWILGCHNSDFRNRGMTALLKVSSCDKNTGDYYEDSYEDISAYLLSKNNAIEPR
0.036
